Sourced from patent US9546158B2

Molecular target: human PDE4B1 (Homo sapiens, UniProt Q07343)
Construct: host or cells: Sf9 cells
Sequence (Q07343 whole entry): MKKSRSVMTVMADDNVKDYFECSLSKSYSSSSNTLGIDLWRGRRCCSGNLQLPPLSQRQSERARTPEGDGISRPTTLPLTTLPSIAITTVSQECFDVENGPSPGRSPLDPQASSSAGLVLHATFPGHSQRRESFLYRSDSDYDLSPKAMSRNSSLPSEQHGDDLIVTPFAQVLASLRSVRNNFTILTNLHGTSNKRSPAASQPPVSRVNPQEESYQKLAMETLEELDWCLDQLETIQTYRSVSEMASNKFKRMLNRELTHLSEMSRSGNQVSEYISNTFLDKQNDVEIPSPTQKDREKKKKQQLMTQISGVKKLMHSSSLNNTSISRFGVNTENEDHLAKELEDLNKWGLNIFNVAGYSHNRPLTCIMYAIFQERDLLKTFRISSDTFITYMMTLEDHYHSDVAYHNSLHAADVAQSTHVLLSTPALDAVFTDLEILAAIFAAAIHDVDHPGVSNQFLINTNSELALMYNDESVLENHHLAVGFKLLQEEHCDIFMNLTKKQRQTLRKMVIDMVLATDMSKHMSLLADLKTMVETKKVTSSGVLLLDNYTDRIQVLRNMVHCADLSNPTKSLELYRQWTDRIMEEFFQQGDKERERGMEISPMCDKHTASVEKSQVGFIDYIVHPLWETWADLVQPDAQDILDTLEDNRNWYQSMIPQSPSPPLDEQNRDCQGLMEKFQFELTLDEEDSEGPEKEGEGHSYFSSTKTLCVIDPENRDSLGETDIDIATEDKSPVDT
Test: cAMP HTRF assay to determine the activity of hPDE4B1
Type: biochemical
Details: test substrate concentration of 1 μM, read-out: Inhibition of PDE4B, Inhibition in %
Method: cAMP HTRF® Assay to Determine the Activity of hPDE4B1 The inhibiting effect of the compounds on the enzyme activity of human PDE4B1 was measured by the quantification of 5′-adenosine monophosphate (5′-AMP), which is formed from 3′,5′-cyclic adenosine monophosphate (cAMP). Human recombinant enzyme, expressed in Sf9 cells, and the HTRF (homogeneous time-resolved fluorescence) detection method were used in the assay. […]
result-type: inhibition at 1 µM (%)
Write it as a number; the unit % goes unstated.

Reference set, count: 10
[[record]]
compound = "CCN(C)C(=O)c1cc2c(cn1)c(C1CC1)nn2-c1ncc(-c2ccccc2F)cn1"
recorded_measurement = 73

[[record]]
compound = "O=C(c1cc2c(cn1)c(C1CC1)nn2-c1ncc(-c2ccccc2F)cn1)N1CCC1"
recorded_measurement = 59

[[record]]
compound = "COCCNC(=O)c1cc2c(cn1)c(C1CC1)nn2-c1ncc(-c2ccccc2F)cn1"
recorded_measurement = 69

[[record]]
compound = "CC1COCCN1C(=O)c1cc2c(cn1)c(C1CC1)nn2-c1ncc(-c2ccccc2F)cn1 (centres unmarked)"
recorded_measurement = 61

[[record]]
compound = "O=C1CN(C(=O)c2ccc3c(C4CC4)nn(-c4ncc(-c5ccccc5)cn4)c3c2)CCN1"
recorded_measurement = 96

[[record]]
compound = "COC[C@@H]1CCCN1C(=O)c1cc2c(cn1)c(C1CC1)nn2-c1ncc(-c2ccccc2F)cn1"
recorded_measurement = 43

[[record]]
compound = "Cc1cccc(-c2cnc(-n3nc(C(C)O)c4ccc(C(=O)N5CCOCC5)cc43)nc2)c1 (centres unmarked)"
recorded_measurement = 96

[[record]]
compound = "CC(C)(O)c1nn(-c2ncc(-c3ccccc3F)cn2)c2cc(C(=O)N3CCOCC3)ccc12"
recorded_measurement = 102

[[record]]
compound = "O=C(NCCn1cncn1)c1cc2c(cn1)c(C1CC1)nn2-c1ncc(-c2ccccc2F)cn1"
recorded_measurement = 67

[[record]]
compound = "COc1ccc(F)c(-c2cnc(-n3nc(S(C)(=O)=O)c4ccc(C(=O)N5CCOCC5)cc43)nc2)c1"
recorded_measurement = 85


Problem: // lookup inhibition at 1 µM | system=human PDE4B1 (Homo sapiens, UniProt Q07343) | key= C[S+]([O-])c1nn(-c2ncc(-c3ccccc3F)cn2)c2cc(C(=O)N3CCNCC3)ccc12 (centres unmarked)
Result: 64

Problem: // lookup inhibition at 1 µM | system=human PDE4B1 (Homo sapiens, UniProt Q07343) | key= CN1CCN(C(=O)c2ccc3c(C4CC4)nn(-c4ncc(-c5ccccc5F)cn4)c3c2)CC1=O
Result: 95

Problem: // lookup inhibition at 1 µM | system=human PDE4B1 (Homo sapiens, UniProt Q07343) | key= COCCCNC(=O)c1cc2c(cn1)c(C1CC1)nn2-c1ncc(-c2ccccc2F)cn1
Result: 44

Problem: // lookup inhibition at 1 µM | system=human PDE4B1 (Homo sapiens, UniProt Q07343) | key= Cc1cccc(-c2cnc(-n3nc([S+](C)[O-])c4ccc(C(=O)N5CCOCC5)cc43)nc2)c1 (centres unmarked)
Result: 101
